Measured MAX(MFI), listed per entry.
# Tested On: T1, human ROR1 (hROR1) on cells (human, UniProt Q01973 30-937)
# T1 construct: whole, on cells; the cell line is named under assay; also called HEK293T-hROR1; 293T-hROR1
# T1 sequence (Q01973 30-937): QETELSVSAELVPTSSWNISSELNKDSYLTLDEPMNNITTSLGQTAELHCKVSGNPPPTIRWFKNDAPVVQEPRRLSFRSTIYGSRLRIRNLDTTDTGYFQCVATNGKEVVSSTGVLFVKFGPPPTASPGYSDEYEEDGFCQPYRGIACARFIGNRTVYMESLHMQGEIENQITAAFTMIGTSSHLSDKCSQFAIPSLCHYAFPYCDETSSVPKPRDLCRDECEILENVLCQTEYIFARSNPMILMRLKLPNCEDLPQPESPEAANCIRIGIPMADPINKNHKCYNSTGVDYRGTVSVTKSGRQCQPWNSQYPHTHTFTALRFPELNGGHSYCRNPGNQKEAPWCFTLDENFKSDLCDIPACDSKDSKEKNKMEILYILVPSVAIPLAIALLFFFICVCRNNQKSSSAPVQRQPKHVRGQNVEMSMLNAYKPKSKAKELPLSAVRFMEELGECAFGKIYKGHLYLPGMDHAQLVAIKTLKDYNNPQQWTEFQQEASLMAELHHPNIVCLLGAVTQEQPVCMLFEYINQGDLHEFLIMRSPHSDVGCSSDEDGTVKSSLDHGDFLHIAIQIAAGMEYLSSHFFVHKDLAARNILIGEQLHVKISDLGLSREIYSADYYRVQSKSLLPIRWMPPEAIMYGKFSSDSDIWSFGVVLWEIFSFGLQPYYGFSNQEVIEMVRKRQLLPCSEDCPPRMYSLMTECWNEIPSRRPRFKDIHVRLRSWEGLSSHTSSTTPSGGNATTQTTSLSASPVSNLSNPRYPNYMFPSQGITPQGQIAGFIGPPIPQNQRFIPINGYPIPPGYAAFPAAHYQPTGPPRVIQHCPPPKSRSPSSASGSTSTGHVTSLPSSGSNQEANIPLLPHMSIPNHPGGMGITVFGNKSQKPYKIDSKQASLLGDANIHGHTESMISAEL
# Assay Details: FACS, HEK293T-hROR1 cells; cytometer saturated
Value expressed in MFI; do not type the unit.

PR001354 (antibody, human IgG1, kappa, V domains shown, fully human IgG1, kappa; also called anti-ROR1 1015M2-C9 hIgG1; PR001354(WT)) VH: QVQLVQSGGGVVQPGRSLRLSCAASGFTFSSYGMHWVRQAPGKGLEWVAIMWYDGSDKDYADSVKGRFTISRDTSKNTLYLQMNSLRAEDTAVYYCAREQARSFDLWGRGTLVTVSS VL: DIVMTQSPSSLSASVGDRVTITCRASQTINNWLAWYQQKPGKAPKLLIYKASSLESGVPSRFSGSGSGTEFTLTISSLQPDDFATYYCQQYNSYSPMYTFGQGTKVEIKR
262000

Next item in the queue.
## Input What value of MAX(MFI) has been recorded for this entry: PR001359 (antibody, human IgG1, kappa, V domains shown, fully human IgG1, kappa) VH: QVQLVESGGGVVQPGRSLRLSCAASGFTFSTYGMHWVRQAPGKGLEWVAVTWYDGSDKDYADSVKGRFTISRDTSKNTLYLQMNSLRAEDTAVYYCAREQARSFDLWGRGTLVTVSS VL: DIVMTQSPSTLSASVGDRVTITCRASQSVNNWLAWYQQKPGKAPKLLIYKASSLESGVPSRFSGSGSGTEFTLTISSLQPDDFATYYCQQYKSYSPMYTFGQGTKVEIKR
## Output 262000
